System: PPARa:RXRa (NR concentration 270 nM, RXRa partner concentration 90 nM)
Experiment: PBM binding z-score (relative to random genomic background probes); higher = stronger binding; sequences stand for … in GC…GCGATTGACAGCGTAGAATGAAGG
QUANTITY_NAME: PBM binding z-score

| SEQUENCE_TEXT | STUDY_SYSTEM | OBSERVED_RESULT |
| --- | --- | --- |
| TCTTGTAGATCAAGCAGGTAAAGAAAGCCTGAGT | PPARa:RXRa (NR concentration 270 nM, RXRa partner concentration 90 nM) | 0.499 |
| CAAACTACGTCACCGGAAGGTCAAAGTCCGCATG | PPARa:RXRa (NR concentration 270 nM, RXRa partner concentration 90 nM) | 3.5 |
| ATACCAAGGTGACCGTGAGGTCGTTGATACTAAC | PPARa:RXRa (NR concentration 270 nM, RXRa partner concentration 90 nM) | 2.4 |
| TAGCCTAGGTCAGATCGCGCCAGTATACGCTATA | PPARa:RXRa (NR concentration 270 nM, RXRa partner concentration 90 nM) | 1.63 |
| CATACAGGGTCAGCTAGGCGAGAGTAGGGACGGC | PPARa:RXRa (NR concentration 270 nM, RXRa partner concentration 90 nM) | 4.19 |
| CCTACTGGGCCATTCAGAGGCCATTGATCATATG | PPARa:RXRa (NR concentration 270 nM, RXRa partner concentration 90 nM) | 0.543 |

* * *

Test system: PPARg:RXRa (NR concentration 180 nM, RXRa partner concentration 90 nM)
Test: PBM binding z-score (relative to random genomic background probes); higher = stronger binding; sequences stand for … in GC…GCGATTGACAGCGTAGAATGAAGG
As shown below, each of these sequences has a reported PBM binding z-score value.

| SEQUENCE_TEXT | PBM binding z-score |
| --- | --- |
| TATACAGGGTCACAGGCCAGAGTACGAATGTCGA | 8.05 |
| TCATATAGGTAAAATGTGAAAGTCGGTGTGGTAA | 3.1 |
| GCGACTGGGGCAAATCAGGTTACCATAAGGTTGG | 1.28 |
| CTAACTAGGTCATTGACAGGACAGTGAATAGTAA | 8.17 |
| ATATGTAGGTTAAGGATCATTCAGGTTGGTTCGC | 8.08 |
| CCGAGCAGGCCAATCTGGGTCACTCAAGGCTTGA | 2.05 |
| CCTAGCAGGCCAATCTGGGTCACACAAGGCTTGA | 3.08 |
| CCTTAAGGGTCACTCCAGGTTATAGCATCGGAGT | 4.86 |
| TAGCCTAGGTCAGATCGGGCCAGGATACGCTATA | 0.718 |
| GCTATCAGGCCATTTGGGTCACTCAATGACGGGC | 0.893 |
| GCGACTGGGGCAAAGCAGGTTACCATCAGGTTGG | 0.987 |
| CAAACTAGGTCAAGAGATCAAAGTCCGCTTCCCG | 8.04 |

* * *

Test system: RXRa homodimer (NR concentration 180 nM)
Assay: PBM binding z-score (relative to random genomic background probes); higher = stronger binding; sequences stand for … in GC…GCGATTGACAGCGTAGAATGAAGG
Returns one of Y or N; Y when PBM binding z-score is >= 2.

| SEQUENCE_TEXT | STUDY_SYSTEM | CLASS |
| --- | --- | --- |
| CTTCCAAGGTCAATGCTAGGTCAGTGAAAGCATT | RXRa homodimer (NR concentration 180 nM) | Y |
| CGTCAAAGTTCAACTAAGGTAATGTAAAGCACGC | RXRa homodimer (NR concentration 180 nM) | Y |
| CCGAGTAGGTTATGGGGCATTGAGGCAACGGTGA | RXRa homodimer (NR concentration 180 nM) | N |
| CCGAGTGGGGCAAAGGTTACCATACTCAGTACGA | RXRa homodimer (NR concentration 180 nM) | Y |
| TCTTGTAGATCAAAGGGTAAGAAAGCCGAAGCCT | RXRa homodimer (NR concentration 180 nM) | N |
| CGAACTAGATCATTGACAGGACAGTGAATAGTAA | RXRa homodimer (NR concentration 180 nM) | N |
| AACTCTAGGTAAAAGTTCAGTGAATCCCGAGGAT | RXRa homodimer (NR concentration 180 nM) | N |
| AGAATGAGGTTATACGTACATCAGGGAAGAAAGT | RXRa homodimer (NR concentration 180 nM) | Y |
